target: Mitogen-activated protein kinase 14 (Homo sapiens); test: Inhibition of Mitogen-activated protein kinase p38 alpha
Sequence (Q16539 whole entry): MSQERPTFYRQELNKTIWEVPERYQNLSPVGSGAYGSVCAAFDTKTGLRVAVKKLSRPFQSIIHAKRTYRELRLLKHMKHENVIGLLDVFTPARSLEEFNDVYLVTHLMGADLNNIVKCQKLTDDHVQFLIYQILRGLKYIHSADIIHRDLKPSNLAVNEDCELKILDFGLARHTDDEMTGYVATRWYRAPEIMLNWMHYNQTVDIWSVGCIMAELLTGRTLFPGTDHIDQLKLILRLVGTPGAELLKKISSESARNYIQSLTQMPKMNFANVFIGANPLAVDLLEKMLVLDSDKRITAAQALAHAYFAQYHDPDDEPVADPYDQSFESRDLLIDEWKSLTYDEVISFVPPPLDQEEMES
ASSAY METRIC: pIC50
Note on pIC50: it is the negative log10 of concentration, concentration in mol/L.

Incoming: Would you mind telling me what pIC50 value was observed for Cn1ccc2ccc3c4[nH]c5c(CCCN[C@H]6CC[C@H](O)CC6)cccc5c4c4c(c3c21)C(=O)NC4=O ?
Outgoing: 4.69

* * *

tested on: HCT-116; assay: In vitro antiproliferative activity against human carcinoma cell line HCT116 (colon); type: functional, cell-based
IC50 vs 1000 nM: less than gives 1 (yes); not less than gives 0 (no).

// known answers, use as guide
- CHEMICAL STRUCTURE: "COc1ccc2c3c4c(c5c(ccc6ccn(C)c65)c3n(CCCN3CCC(O)CC3)c2c1)C(=O)NC4=O"
  TGT: "HCT-116"
  CLASSIFICATION: "0 (no)"
- CHEMICAL STRUCTURE: "O=C1NC(=O)c2c1c1c(ccc3cc[nH]c31)c1[nH]c3cc(OCc4ccccc4)ccc3c21"
  TGT: "HCT-116"
  CLASSIFICATION: "0 (no)"
- CHEMICAL STRUCTURE: "Cn1ccc2cc(F)c3c(c4c(c5c6ccccc6n(CCCO)c53)C(=O)NC4=O)c21"
  TGT: "HCT-116"
  CLASSIFICATION: "0 (no)"
- CHEMICAL STRUCTURE: "Cn1ccc2ccc3c4[nH]c5cc(O)ccc5c4c4c(c3c21)C(=O)NC4=O"
  TGT: "HCT-116"
  CLASSIFICATION: "1 (yes)"
- CHEMICAL STRUCTURE: "Cn1ccc2ccc3c4[nH]c5cc(C#N)ccc5c4c4c(c3c21)C(=O)NC4=O"
  TGT: "HCT-116"
  CLASSIFICATION: "0 (no)"
- CHEMICAL STRUCTURE: "Cc1cc2ccn(C)c2c2c3c(c4c5ccccc5n(CCCO)c4c12)C(=O)NC3=O"
  TGT: "HCT-116"
  CLASSIFICATION: "0 (no)"
- CHEMICAL STRUCTURE: "COc1ccc2c3c4c(c5c(ccc6ccn(C)c65)c3n(CCCN3CCC(C(N)=O)CC3)c2c1)C(=O)NC4=O"
  TGT: "HCT-116"
  CLASSIFICATION: "0 (no)"

Note: attention shifts to another entry.
Incoming: Please let me know if COc1ccc2c3c4c(c5c(ccc6ccn(C)c65)c3n(CCN[C@H]3CC[C@H](O)CC3)c2c1)C(=O)NC4=O shows IC50 below 1000 nM.
Outgoing: 1 (yes)

* * *

biological target: Cyclin-dependent kinase 4 (Homo sapiens) (UniProt P11802); test: Inhibition of Rb phosphorylation at the CDK4 specific Ser780 residue (1 fold increase over control) after 24 hr incubation in HCT116 cells; type: functional, cell-based; details: HCT-116, concentration not given here
Sequence (P11802 whole entry): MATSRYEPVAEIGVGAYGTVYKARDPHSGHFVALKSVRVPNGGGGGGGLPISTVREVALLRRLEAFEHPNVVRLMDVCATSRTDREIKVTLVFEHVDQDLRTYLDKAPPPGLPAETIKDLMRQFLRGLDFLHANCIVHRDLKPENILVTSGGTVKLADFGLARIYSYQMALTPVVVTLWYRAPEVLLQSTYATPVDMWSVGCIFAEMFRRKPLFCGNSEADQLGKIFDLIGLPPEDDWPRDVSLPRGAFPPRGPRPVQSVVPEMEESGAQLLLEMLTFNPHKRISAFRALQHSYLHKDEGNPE
ASSAY METRIC: inhibition (%)
Give a bare numeral; the unit % is implied.

A selection of reference data follows.
- CHEMICAL STRUCTURE: "Cn1ccc2ccc3c4[nH]c5c(CCN6CCC[C@H]6CO)cccc5c4c4c(c3c21)C(=O)NC4=O"
  inhibition / %: 65
- CHEMICAL STRUCTURE: "COc1ccc2c3c4c(c5c(ccc6ccn(C)c65)c3n(CCCNCCO)c2c1)C(=O)NC4=O"
  inhibition / %: 57
- CHEMICAL STRUCTURE: "COc1ccc2c3c4c(c5c(ccc6ccn(C)c65)c3n(CCCO)c2c1)C(=O)NC4=O"
  inhibition / %: 66
- CHEMICAL STRUCTURE: "COc1ccc2c3c4c(c5c(ccc6ccn(C)c65)c3n(CCNCCO)c2c1)C(=O)NC4=O"
  inhibition / %: 71
- CHEMICAL STRUCTURE: "Cn1ccc2ccc3c4[nH]c5c(CCN[C@H]6CC[C@H](O)CC6)cccc5c4c4c(c3c21)C(=O)NC4=O"
  inhibition / %: 78
- CHEMICAL STRUCTURE: "COc1ccc2c3c4c(c5c(ccc6ccn(C)c65)c3n(CCN[C@H]3CC[C@H](O)CC3)c2c1)C(=O)NC4=O"
  inhibition / %: 67
- CHEMICAL STRUCTURE: "Cn1ccc2ccc3c4[nH]c5cc(O)ccc5c4c4c(c3c21)C(=O)NC4=O"
  inhibition / %: 37
- CHEMICAL STRUCTURE: "Cn1ccc2ccc3c4[nH]c5c(CCN6CCC(O)CC6)cccc5c4c4c(c3c21)C(=O)NC4=O"
  inhibition / %: 68
- CHEMICAL STRUCTURE: "COc1ccc2c3c4c(c5c(ccc6ccn(C)c65)c3n(CCCN3CCC(C(N)=O)CC3)c2c1)C(=O)NC4=O"
  inhibition / %: 58
- CHEMICAL STRUCTURE: "COc1cc2c3[nH]c4ccccc4c3c3c(c2c2c1ccn2C)C(=O)NC3=O"
  inhibition / %: 71

Incoming: Would you mind telling me what inhibition value was observed for Cn1ccc2ccc3c4[nH]c5c(CCN6CCCCC6)cccc5c4c4c(c3c21)C(=O)NC4=O ?
Outgoing: 69

Incoming: Would you mind telling me what inhibition value was observed for Cn1ccc2ccc3c4[nH]c5ccccc5c4c4c(c3c21)C(=O)NC4=O ?
Outgoing: 63

Incoming: Would you mind telling me what inhibition value was observed for Cn1ccc2ccc3c4[nH]c5c(CCCN[C@H]6CC[C@H](O)CC6)cccc5c4c4c(c3c21)C(=O)NC4=O ?
Outgoing: 45

Incoming: Would you mind telling me what inhibition value was observed for COc1ccc2c(c1)[nH]c1c3ccc4ccn(C)c4c3c3c(c21)C(=O)NC3=O ?
Outgoing: 90

Incoming: Would you mind telling me what inhibition value was observed for COc1cc2ccn(C)c2c2c3c(c4c5ccccc5[nH]c4c12)C(=O)NC3=O ?
Outgoing: 56

Incoming: Would you mind telling me what inhibition value was observed for Cn1ccc2ccc3c4[nH]c5c(CCO)cccc5c4c4c(c3c21)C(=O)NC4=O ?
Outgoing: 60

Incoming: Would you mind telling me what inhibition value was observed for Cn1ccc2ccc3c4[nH]c5c(CCN6CCC(C(N)=O)CC6)cccc5c4c4c(c3c21)C(=O)NC4=O ?
Outgoing: 52
